Reported Emax values for the following compounds.
# test.target: human β2-adrenergic receptor (Homo sapiens, UniProt P07550)
# Construct: expressed in transfected cells; host or cells: CHO (Chinese hamster ovary) cells, pcDNA3
# Sequence (P07550 whole entry): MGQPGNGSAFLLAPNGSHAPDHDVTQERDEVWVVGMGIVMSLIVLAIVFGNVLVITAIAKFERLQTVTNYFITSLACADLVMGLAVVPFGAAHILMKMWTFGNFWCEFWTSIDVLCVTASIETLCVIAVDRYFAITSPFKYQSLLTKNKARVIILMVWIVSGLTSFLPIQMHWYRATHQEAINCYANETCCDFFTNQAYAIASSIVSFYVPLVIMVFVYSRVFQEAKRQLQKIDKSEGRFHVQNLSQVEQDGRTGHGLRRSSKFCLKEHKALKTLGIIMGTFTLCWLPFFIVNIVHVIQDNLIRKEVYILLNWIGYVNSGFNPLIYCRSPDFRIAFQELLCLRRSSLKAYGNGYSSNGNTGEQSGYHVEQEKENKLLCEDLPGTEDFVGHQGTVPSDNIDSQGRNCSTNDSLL
# experiment: Test Case 3-B: human β2-adrenergic receptor agonist activity
# Assay type: cell-based
# reported.conditions: read-out: β2 receptor I.A.
Your answer should be a plain number; it is taken to be in %.

In the examples that follow, each entry is paired with its recorded Emax.
Notebook: COc1n[nH]c2cc(OCCNC[C@H](O)c3cccc(NS(=O)(=O)C4CC4)c3)ccc12 , Emax read as 12

Notebook: CCc1n[nH]c2cc(OCCNC[C@H](O)c3cccc(NS(=O)(=O)c4cnn(C)c4)c3)ccc12 , Emax read as 7

Notebook: Cc1n[nH]c2cc(OCCNC[C@H](O)c3cccc(NS(=O)(=O)c4cccc(O)c4)c3)ccc12 , Emax read as 5

Notebook: Nc1cccc(S(=O)(=O)Nc2cccc([C@@H](O)CNCCOc3ccc4c(Cl)n[nH]c4c3)c2)c1 , Emax read as 13

Notebook: O=S(=O)(Nc1cccc([C@@H](O)CNCCOc2ccc3c(C(F)(F)F)n[nH]c3c2)c1)C1CC1 , Emax read as 8

***
Notebook: Cc1n[nH]c2cc(OCCNC[C@H](O)c3cccc(NS(=O)(=O)C4CCC4)c3)ccc12 , Emax read as 1

Notebook: CCc1n[nH]c2cc(OCCNC[C@H](O)c3cccc(NS(=O)(=O)c4cccc(C)c4)c3)ccc12 , Emax read as 1

Notebook: O=S(=O)(Nc1cccc([C@@H](O)CNCCOc2ccc3c(OC(F)F)n[nH]c3c2)c1)c1cn[nH]c1 , Emax read as 3

* * *

# test.target: human β3-adrenergic receptor (Homo sapiens, UniProt P13945)
# Construct: A full-length human β3 gene is obtained from a human genomic library (made by Clontech) using this as the probe; expressed in transfected cells; host or cells: CHO (Chinese hamster ovary) cells, pcDNA3
# Sequence (P13945 whole entry): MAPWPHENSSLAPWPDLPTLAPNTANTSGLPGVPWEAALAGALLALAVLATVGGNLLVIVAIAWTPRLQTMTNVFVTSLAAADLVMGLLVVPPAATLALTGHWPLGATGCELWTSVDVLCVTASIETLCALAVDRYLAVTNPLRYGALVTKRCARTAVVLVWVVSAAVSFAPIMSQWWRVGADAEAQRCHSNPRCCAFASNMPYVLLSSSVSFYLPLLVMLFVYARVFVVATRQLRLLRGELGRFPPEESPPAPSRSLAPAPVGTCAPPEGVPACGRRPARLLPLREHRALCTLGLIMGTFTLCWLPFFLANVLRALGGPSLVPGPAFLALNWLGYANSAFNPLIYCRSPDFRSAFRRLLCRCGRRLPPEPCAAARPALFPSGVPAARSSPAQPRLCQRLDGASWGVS
# experiment: Test Case 1-B: human β3-adrenergic receptor agonist activity (cAMP-Screen, 96-well)
# Type: cell-based
# reported.conditions: 0.5 h; read-out: β3 receptor I.A.
property.measured: Emax (%)
Your answer should be a plain number; it is taken to be in %.

In the examples that follow, each entry is paired with its recorded Emax.
Notebook: Cc1n[nH]c2cc(OCCNC[C@H](O)c3cccc(NS(=O)(=O)c4cc(F)ccc4F)c3)ccc12 [ex72] , Emax read as 92

Notebook: COc1n[nH]c2cc(OCCNC[C@H](O)c3cccc(NS(=O)(=O)C4CCC4)c3)ccc12 [ex38] , Emax read as 89

# evaluate next
Notebook: O=S(=O)(Nc1cccc([C@@H](O)CNCCOc2ccc3c(C(F)(F)F)n[nH]c3c2)c1)C1CC1 [ex181] , Emax read as 80

* * *

# test.target: human β3-adrenergic receptor (Homo sapiens, UniProt P13945)
# Construct: A full-length human β3 gene is obtained from a human genomic library (made by Clontech) using this as the probe
# experiment: Test Case 1-B: human β3-adrenergic receptor agonist activity (cAMP-Screen, 96-well)
# reported.conditions: Test Case 1-B; CHO cells, cAMP
Reported pEC50 values for the following compounds.
Quick note: pEC50 means taking -log10 of the concentration in moles per liter.

Notebook: Cc1n[nH]c2cc(OCCNC[C@H](O)c3cccc(NS(=O)(=O)c4cnn(C)c4)c3)ccc12 , pEC50 read as 7.27

Notebook: O=S(=O)(Nc1cccc([C@@H](O)CNCCOc2ccc3c(CO)n[nH]c3c2)c1)C1CCC1 , pEC50 read as 7.14

Notebook: O=S(=O)(Nc1cccc([C@@H](O)CNCCOc2ccc3c(C4CCC4)n[nH]c3c2)c1)C1CCC1 , pEC50 read as 8.00

Notebook: O=S(=O)(Nc1cccc([C@@H](O)CNCCOc2ccc3c(OC(F)F)n[nH]c3c2)c1)C1CCC1 , pEC50 read as 7.82

Notebook: O=S(=O)(Nc1cccc([C@@H](O)CNCCOc2ccc3c(OC(F)F)n[nH]c3c2)c1)c1cn[nH]c1 , pEC50 read as 7.66

Notebook: Cc1n[nH]c2cc(OCCNC[C@H](O)c3cccc(NS(=O)(=O)c4cccc(C(F)(F)F)c4)c3)ccc12 , pEC50 read as 6.24

Notebook: O=S(=O)(Nc1cccc([C@@H](O)CNCCOc2ccc3c(Cl)n[nH]c3c2)c1)c1ccccc1F , pEC50 read as 7.21

Notebook: COc1n[nH]c2cc(OCCNC[C@H](O)c3cccc(NS(=O)(=O)c4cccc(Cl)c4)c3)ccc12 [ex42] , pEC50 read as 8.42

Notebook: Cc1n[nH]c2cc(OCCNC[C@H](O)c3cccc(NS(=O)(=O)c4cccc(O)c4)c3)ccc12 , pEC50 read as 9.00

Notebook: COc1n[nH]c2cc(OCCNC[C@H](O)c3cccc(NS(=O)(=O)C4CC4)c3)ccc12 [ex17] , pEC50 read as 7.41

Notebook: CCc1n[nH]c2cc(OCCNC[C@H](O)c3cccc(NS(=O)(=O)c4cccs4)c3)ccc12 , pEC50 read as 9.04

Notebook: CNc1cccc(S(=O)(=O)Nc2cccc([C@@H](O)CNCCOc3ccc4c(C)n[nH]c4c3)c2)c1 , pEC50 read as 7.80

Notebook: COc1n[nH]c2cc(OCCNC[C@H](O)c3cccc(NS(=O)(=O)C4CCC4)c3)ccc12 , pEC50 read as 7.51

Notebook: O=S(=O)(Nc1cccc([C@@H](O)CNCCOc2ccc3c(OC(F)F)n[nH]c3c2)c1)c1ccccc1F , pEC50 read as 7.00

Notebook: Nc1cccc(S(=O)(=O)Nc2cccc([C@@H](O)CNCCOc3ccc4c(OC(F)F)n[nH]c4c3)c2)c1 , pEC50 read as 9.38

Notebook: Cc1n[nH]c2cc(OCCNC[C@H](O)c3cccc(NS(=O)(=O)c4ccc(Cl)cc4)c3)ccc12 , pEC50 read as 6.61
